- System: Human immunodeficiency virus 1
- protocol: Antiviral activity against HIV-1 MDR/MM infected in human PHA-PBM cells assessed as inhibition of p24 Gag protein production
- Format: functional, organism-based
- reported-conditions: Human immunodeficiency virus 1, MDR/MM, PBMC
pEC50: −log10 of the molar value.
observation-type: pEC50

molecule	study-target	result-number
COc1ccc(S(=O)(=O)N(CC(C)C)C[C@@H](O)[C@H](Cc2ccccc2)NC(=O)O[C@H]2CCO[C@H]3OCC[C@H]32)cc1	Human immunodeficiency virus 1	8.30
COC(=O)N[C@H](C(=O)N[C@@H](Cc1ccccc1)[C@@H](O)CN(Cc1ccc(-c2ccccn2)cc1)NC(=O)[C@@H](NC(=O)OC)C(C)(C)C)C(C)(C)C [ATAZANAVIR]	Human immunodeficiency virus 1	6.69

###

Parameter Ki, tested on Protease (Human immunodeficiency virus 1, UniProt Q9YQ12), listed per item.
Sequence (Q9YQ12 whole entry): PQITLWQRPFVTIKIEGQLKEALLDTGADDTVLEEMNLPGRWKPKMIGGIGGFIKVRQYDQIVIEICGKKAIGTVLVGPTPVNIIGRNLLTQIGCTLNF

compound-smiles	Ki / pM
COc1ccc(S(=O)(=O)N(CC(C)C)C[C@@H](O)[C@H](Cc2ccccc2)NC(=O)O[C@H]2CO[C@H]3OCC[C@H]3C2)cc1	110
CC(C)CN(C[C@@H](O)[C@H](Cc1ccccc1)NC(=O)O[C@H]1CCO[C@H]2OCC[C@H]21)S(=O)(=O)c1ccc(CO)cc1	85
COc1ccc(S(=O)(=O)N(CC(C)C)C[C@@H](O)[C@H](Cc2ccccc2)NC(=O)O[C@H]2CCC[C@H]3CCC[C@H]32)cc1	9000
COc1ccc(S(=O)(=O)N(CC(C)C)C[C@@H](O)[C@H](Cc2ccccc2)NC(=O)O[C@H]2CCO[C@H]3CCC[C@H]32)cc1	1430
COc1ccc(S(=O)(=O)N(CC(C)C)C[C@@H](O)[C@H](Cc2ccccc2)NC(=O)O[C@H]2CCO[C@H]3COC[C@H]32)cc1	5300
CC(C)CN(C[C@@H](O)[C@H](Cc1ccccc1)NC(=O)O[C@H]1CCO[C@H]2OCC[C@H]21)S(=O)(=O)c1ccc(N)cc1	10
COc1ccc(S(=O)(=O)N(CC(C)C)C[C@@H](O)[C@H](Cc2ccccc2)NC(=O)O[C@@H]2CCO[C@@H]3OCC[C@@H]32)cc1	68
COc1ccc(S(=O)(=O)N(CC(C)C)C[C@@H](O)[C@H](Cc2ccccc2)NC(=O)O[C@H]2CCO[C@H]3OCC[C@H]32)cc1	2.7

###

Entries annotated with measured pEC50
- System: Human immunodeficiency virus 1
- protocol: Antiviral activity against HIV-1 MDR/G infected in human PHA-PBM cells assessed as inhibition of p24 Gag protein production
- Assay type: functional, organism-based
- reported-conditions: Human immunodeficiency virus 1, MDR/G, PBMC
pEC50: −log10 of the molar value.
observation-type: pEC50

compound	result-number
COC(=O)N[C@H](C(=O)N[C@@H](Cc1ccccc1)[C@@H](O)CN(Cc1ccc(-c2ccccn2)cc1)NC(=O)[C@@H](NC(=O)OC)C(C)(C)C)C(C)(C)C [ATAZANAVIR]	7.72
COc1ccc(S(=O)(=O)N(CC(C)C)C[C@@H](O)[C@H](Cc2ccccc2)NC(=O)O[C@H]2CCO[C@H]3OCC[C@H]32)cc1	8.59
